# test description: Antiinflammatory activity in C57/Bl6 mouse CD4+ T cells assessed as inhibition of anti-CD3/anti-CD28 antibody-stimulated INFgamma production after 18 hrs by ELISA
# Type: functional, cell-based
# test parameters: C57/Bl6, T-cell
property: EC50 (nM)

a. Nc1nc(SCCC2CCCCC2)nc2c1ncn2[C@@H]1O[C@H](CO)[C@@H](O)[C@H]1O
b. Nc1nc(SCCC2CCCCC2)nc2c1ncn2[C@@H]1O[C@H](COP(=O)(O)O)[C@@H](O)[C@H]1O
Hello, I am sorting some records. Could you say if a or b has the smaller EC50 value? Reply with the label of the item you choose. a
(a: 50 nM, b: 5700 nM)
